Listing: pKi of selected compounds
target: Gastrin/cholecystokinin type B receptor (Homo sapiens, UniProt P32239); experiment: Tested for its selectivity against human Cholecystokinin type B receptor isolated from a human temporal cortex cDNA library and stably transfected into a HeLa cell line. (n=1)
Sequence (P32239 whole entry): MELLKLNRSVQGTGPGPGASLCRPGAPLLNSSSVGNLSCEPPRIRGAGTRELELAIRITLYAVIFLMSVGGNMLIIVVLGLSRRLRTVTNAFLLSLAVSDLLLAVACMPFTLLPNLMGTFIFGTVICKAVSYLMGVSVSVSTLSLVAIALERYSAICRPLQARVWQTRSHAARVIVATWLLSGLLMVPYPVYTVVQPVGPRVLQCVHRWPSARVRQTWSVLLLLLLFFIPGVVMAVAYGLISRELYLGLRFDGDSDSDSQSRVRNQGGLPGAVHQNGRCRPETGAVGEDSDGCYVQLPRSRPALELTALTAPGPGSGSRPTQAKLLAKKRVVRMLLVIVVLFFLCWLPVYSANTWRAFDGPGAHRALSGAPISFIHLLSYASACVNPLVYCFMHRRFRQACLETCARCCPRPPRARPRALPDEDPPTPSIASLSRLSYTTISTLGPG
pKi: −log10 of the molar value.
property-measured: pKi

> print(dat)
                                   compound                           subject.of.test  property.measured  reported
1  O=C(Nc1ccc(F)cc1)N[C@H]1C(=O)N(CC(=O)N2CCCC2)c2ccccc2N(C2CCCCCC2)C1=O  Gastrin/cholecystokinin type B receptor (Homo sapiens, UniProt P32239)                pKi      8.80
2  O=C(Nc1ccc(F)cc1)N[C@H]1C(=O)N(CC(=O)N2CCCC2)c2ccccc2N(C2CCCCC2)C1=O  Gastrin/cholecystokinin type B receptor (Homo sapiens, UniProt P32239)                pKi      8.60
3  O=C(Nc1ccc(F)cc1)NC1C(=O)N(CC(=O)N2CC3CCC(CC3)C2)c2ccccc2N(c2ccccc2F)C1=O (racemic)  Gastrin/cholecystokinin type B receptor (Homo sapiens, UniProt P32239)                pKi      9.40
4  O=C(Nc1ccc(F)cc1)NC1C(=O)N(CC(=O)N2CCCC2)c2ccccc2N(c2ccccc2F)C1=O (centres undefined)  Gastrin/cholecystokinin type B receptor (Homo sapiens, UniProt P32239)                pKi      7.90

---

Target: Cholecystokinin receptor type A (Cavia porcellus)
Sequence (whole entry): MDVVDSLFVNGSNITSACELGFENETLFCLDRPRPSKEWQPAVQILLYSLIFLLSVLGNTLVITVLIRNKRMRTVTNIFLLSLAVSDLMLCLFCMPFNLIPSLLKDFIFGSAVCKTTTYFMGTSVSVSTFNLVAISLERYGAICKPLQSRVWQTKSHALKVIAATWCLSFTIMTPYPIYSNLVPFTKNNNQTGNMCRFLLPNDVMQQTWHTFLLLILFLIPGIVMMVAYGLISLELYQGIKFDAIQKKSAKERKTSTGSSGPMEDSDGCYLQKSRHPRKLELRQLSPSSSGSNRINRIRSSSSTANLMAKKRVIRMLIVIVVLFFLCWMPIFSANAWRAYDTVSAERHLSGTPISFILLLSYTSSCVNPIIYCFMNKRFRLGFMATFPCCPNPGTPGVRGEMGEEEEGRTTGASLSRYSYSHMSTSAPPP
Assay: Tested for selectivity toward Cholecystokinin type A receptor by guinea -pig isolated ileum longitudinal muscle-myenteric plexus (GPI) assay
Assay type: tissue-based
Please note: class 1 applies when pKB is 7 or greater, and class 0 applies otherwise.

> print(dat)
                                   compound  class.assignment
1  O=C(Nc1cccc(C(=O)O)c1)NC1C(=O)N(CC(=O)N2CCCC2)c2ccccc2N(c2ccccc2)C1=O (stereo not given)           class 0
2  O=C(Nc1cccc(C2N=NN=N2)c1)NC1C(=O)N(CC(=O)N2CCCC2)c2ccccc2N(c2ccccc2)C1=O (stereo not given)           class 1
3  O=C(Nc1ccccc1)NC1C(=O)N(CC(=O)N2CCCC2)c2ccccc2N(c2ccccc2)C1=O (stereo not given)           class 1
4  Cc1cccc(NC(=O)N[C@@H]2N=C(c3ccccc3)c3ccccc3N(C)C2=O)c1           class 1

Sourced from ChEMBL document CHEMBL1149918
